# Procedure Text: Cell cycle arrest in human ALL5 cells assessed as accumulation at sub-G1 phase at 5 times antiproliferative IC50 after 96 hrs by propidium iodide staining based flow cytometry (reference value: 12%)
# Assay type: functional
Experimental Endpoint: Activity (%)
Give the quantity in %, number only.

Just so you know, measured Activity for CCOC(=O)O[C@@H]1C=C[C@]2(O[C@H]([C@@H](CC)C(=O)[C@@H](C)[C@@H](O)[C@H](C)[C@@H]3O[C@@H]([C@@H](CC)C(=O)NCCc4ccc(F)cc4)CC[C@@H]3C)[C@@H](C)C[C@H]2C)O[C@@]12CC[C@@](C)([C@H]1CC[C@](O)(CC)[C@H](C)O1)O2 came out at 27.5

Just so you know, measured Activity for C#CCOC(=O)[C@H](CC)[C@H]1CC[C@H](C)[C@H]([C@@H](C)[C@H](O)[C@H](C)C(=O)[C@H](CC)[C@H]2O[C@]3(C=C[C@@H](OC(=O)NCC)[C@]4(CC[C@@](C)([C@H]5CC[C@](O)(CC)[C@H](C)O5)O4)O3)[C@H](C)C[C@@H]2C)O1 came out at 43.6

Just so you know, measured Activity for CCNC(=O)O[C@@H]1C=C[C@]2(O[C@H]([C@@H](CC)C(=O)[C@@H](C)[C@@H](O)[C@H](C)[C@@H]3O[C@@H]([C@@H](CC)C(=O)NCCc4ccc(F)cc4)CC[C@@H]3C)[C@@H](C)C[C@H]2C)O[C@@]12CC[C@@](C)([C@H]1CC[C@](O)(CC)[C@H](C)O1)O2 came out at 53.7

Data origin, for the record: ChEMBL document CHEMBL4270561
